- measuredTarget: human DGKζ (Homo sapiens, UniProt Q13574)
- Construct: TVMV protease cleavage site (C); Hexa-His (C); made in house; host or cells: Sf9 insect cells (baculovirus, Bac-to-Bac)
- Sequence (Q13574 with tags, fused parts or gaps isoform Q13574-4): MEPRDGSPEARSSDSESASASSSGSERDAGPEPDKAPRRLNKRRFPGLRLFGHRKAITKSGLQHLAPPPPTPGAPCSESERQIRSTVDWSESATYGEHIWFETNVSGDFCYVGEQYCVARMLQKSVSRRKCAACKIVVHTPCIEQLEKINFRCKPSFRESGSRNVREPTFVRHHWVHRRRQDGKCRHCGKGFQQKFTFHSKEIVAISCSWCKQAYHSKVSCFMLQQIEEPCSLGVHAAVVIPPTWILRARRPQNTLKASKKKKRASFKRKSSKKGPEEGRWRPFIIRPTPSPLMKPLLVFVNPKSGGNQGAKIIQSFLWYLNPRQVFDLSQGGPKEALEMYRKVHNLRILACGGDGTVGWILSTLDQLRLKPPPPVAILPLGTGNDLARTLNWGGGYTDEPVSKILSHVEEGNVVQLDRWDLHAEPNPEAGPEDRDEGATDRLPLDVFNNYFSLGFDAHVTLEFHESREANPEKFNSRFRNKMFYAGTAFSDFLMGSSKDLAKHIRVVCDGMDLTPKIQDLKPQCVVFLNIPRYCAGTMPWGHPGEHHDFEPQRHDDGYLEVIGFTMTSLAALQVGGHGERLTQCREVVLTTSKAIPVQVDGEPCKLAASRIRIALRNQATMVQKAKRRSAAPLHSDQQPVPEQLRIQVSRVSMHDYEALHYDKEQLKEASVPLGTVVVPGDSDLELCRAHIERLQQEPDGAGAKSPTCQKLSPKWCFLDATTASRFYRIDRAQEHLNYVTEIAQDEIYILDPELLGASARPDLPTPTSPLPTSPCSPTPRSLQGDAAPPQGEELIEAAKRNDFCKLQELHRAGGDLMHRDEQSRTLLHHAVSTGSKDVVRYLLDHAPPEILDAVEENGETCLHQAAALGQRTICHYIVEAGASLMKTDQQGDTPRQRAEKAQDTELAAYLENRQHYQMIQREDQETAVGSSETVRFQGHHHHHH
- assayProtocol: DGKζ LIPGLO assay (extruded liposome substrate), in vitro DGK inhibition
- Assay type: biochemical
- conditionLabel: liposome (LIPGLO) assay; read-out: DGKz LIPGLO IC50
pIC50: −log10 of the molar value.
endpointLabel: pIC50

Known results for compounds:
1) C[C@@H]1CN(c2cc(=O)n(C)c3ccc(C#N)nc23)[C@@H](C)CN1C(c1ccc(F)cc1)C1CCOCC1 (single isomer, unassigned) [Example 388] :: 4.85
2) CC[C@@H]1CN(c2cc(=O)n(C)c3ccc(C#N)nc23)[C@@H](CC)CN1Cc1ccc(OC(F)(F)F)cc1F [Example 1370] :: 6.85
3) CCc1ccc(C(c2cccc(Cl)c2)N2C[C@H](C)N(c3cc(=O)n(C)c4ccc(C#N)nc34)C[C@H]2C)nc1 (single isomer, unassigned) [Example 355] :: 6.13
4) C[C@@H]1CN(c2cc(=O)n(C)c3ccc(C#N)nc23)[C@@H](C)CN1C(c1ccccc1)c1cccc(F)c1 (stereo partly shown) [Example 296] :: 6.05
5) COc1cc(F)c(CN2C[C@H](C)N(c3cc(=O)n(C)c4ccc(C#N)nc34)C[C@H]2C)c(F)c1 [Example 1276] :: 6.62
6) C[C@@H]1CN(C(c2ccc(F)cc2)c2ccc(Cl)cc2)[C@@H](CO)CN1c1cc(=O)n(C)c2ccc(C#N)nc12 (single isomer, unassigned) [Example 1174] :: 6.37
7) C[C@@H]1CN(c2cc(=O)n(C)c3ccc(C#N)nc23)[C@@H](C)CN1Cc1ccccc1 [Example 264] :: 5.52
8) COc1ccc(C(C)N2C[C@H](C)N(c3cc(=O)n(C)c4ccc(C#N)nc34)C[C@H]2C)cc1C(F)(F)F (stereo partly shown) [Example 1249] :: 6.19

1 = CCC(c1cc(Cl)cc2c1OCC2)N1C[C@H](C)N(c2cc(=O)n(C)c3ccc(C#N)nc23)C[C@H]1C (stereo partly shown) [Example 353]
2 = C[C@@H]1CN(c2cc(=O)n(C)c3ccc(C#N)nc23)[C@@H](C)CN1C(c1ccc(F)cc1)c1cc(F)ccn1 (single isomer, unassigned) [Example 473]
3 = CC[C@H]1CN(C(C)c2ccc(C(F)(F)F)cc2)[C@H](CC)CN1c1cc(=O)n(C)c2ccc(C#N)nc12 (single isomer, unassigned) [Example 1051]
4 = C[C@@H]1CN(c2c(F)c(=O)n(C)c3ccc(C#N)nc23)CCN1C(c1ccc(F)cc1)c1ccc(F)cc1 [Example 30]
Arrange the 4 entries by pIC50 so the values rise. Response field: labels, in requested order.
2, 1, 4, 3
(2: 5.40, 1: 5.85, 4: 6.37, 3: 6.68)

====

- measuredTarget: human DGKα (Homo sapiens, UniProt P23743)
- Construct: TVMV protease cleavage site (C); Hexa-His (C); made in house; host or cells: Sf9 insect cells (baculovirus, Bac-to-Bac)
- Sequence (P23743 with tags, fused parts or gaps): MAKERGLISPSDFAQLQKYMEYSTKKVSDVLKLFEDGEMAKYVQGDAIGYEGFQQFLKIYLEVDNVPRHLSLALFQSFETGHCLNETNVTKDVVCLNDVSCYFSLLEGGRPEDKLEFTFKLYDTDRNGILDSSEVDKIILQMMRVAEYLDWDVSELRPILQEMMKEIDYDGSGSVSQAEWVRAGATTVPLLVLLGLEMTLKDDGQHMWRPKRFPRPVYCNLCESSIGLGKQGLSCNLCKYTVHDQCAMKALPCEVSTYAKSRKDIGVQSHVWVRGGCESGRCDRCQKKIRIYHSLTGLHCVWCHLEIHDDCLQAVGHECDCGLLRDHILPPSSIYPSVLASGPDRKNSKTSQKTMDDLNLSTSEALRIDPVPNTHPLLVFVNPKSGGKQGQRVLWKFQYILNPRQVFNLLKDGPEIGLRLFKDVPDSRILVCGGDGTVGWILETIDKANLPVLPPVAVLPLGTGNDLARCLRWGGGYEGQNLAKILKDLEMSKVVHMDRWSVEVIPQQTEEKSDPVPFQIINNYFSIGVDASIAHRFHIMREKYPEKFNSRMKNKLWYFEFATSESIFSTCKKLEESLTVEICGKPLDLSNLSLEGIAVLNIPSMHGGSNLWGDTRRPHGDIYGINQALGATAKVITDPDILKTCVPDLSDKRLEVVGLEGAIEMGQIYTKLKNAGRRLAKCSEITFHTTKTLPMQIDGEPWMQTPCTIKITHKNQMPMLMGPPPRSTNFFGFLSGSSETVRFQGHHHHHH
- assayProtocol: DGKα LIPGLO assay (extruded liposome substrate), in vitro DGK inhibition
- Type: biochemical
- conditionLabel: liposome (LIPGLO) assay; read-out: DGKa LIPGLO IC50
endpointLabel: IC50 (µM)

Known results for compounds:
1. Cn1c(=O)c(C#N)c(N2CCN(C(c3ccc(F)cc3)c3ccc(F)cc3)CC2CO)c2nc(Br)ccc21 (stereo not drawn) :: 10
2. CCc1cc(F)ccc1C(c1ccc(F)cc1)N1C[C@H](C)N(c2cc(=O)n(C)c3ccc(OC)nc23)C[C@H]1C (single isomer, unassigned) [Example 233] :: 27
3. Cc1ccnc(C(c2ccc(F)cc2)N2C[C@H](C)N(c3cc(=O)n(C)c4ccc(C#N)nc34)C[C@H]2C)c1 (single isomer, unassigned) [Example 455] :: 1
4. Cc1cc(CN2C[C@H](C)N(c3cc(=O)n(C)c4ccc(C#N)nc34)C[C@H]2C)no1 :: 3.7

I = Cc1ccc(C(c2cccc(Cl)c2)N2C[C@H](C)N(c3cc(=O)n(C)c4ccc(C#N)nc34)C[C@H]2C)nc1 (stereo partly drawn) [Example 398]
II = CC(c1ccc(P(C)(C)=O)cc1)N1C[C@H](C)N(c2cc(=O)n(C)c3ccc(C#N)nc23)C[C@H]1C (stereo partly drawn) [Example 1291]
Lab log: flag the item ( I or II ) with the smaller IC50 figure. Mark your selection by writing its label.
I

====

- measuredTarget: human DGKα (Homo sapiens, UniProt P23743)
- Construct: TVMV protease cleavage site (C); Hexa-His (C); made in house; host or cells: Sf9 insect cells (baculovirus, Bac-to-Bac)
- assayProtocol: DGKα LIPGLO assay (extruded liposome substrate), in vitro DGK inhibition
- Format: biochemical
- conditionLabel: liposome (LIPGLO) assay; read-out: DGKa LIPGLO IC50
pIC50: −log10 of the molar value.
endpointLabel: pIC50

Known results for molecules:
1) CC(C)Oc1ccc(C(C)N2C[C@H](C)N(c3cc(=O)n(C)c4ccc(C#N)nc34)C[C@H]2C)cn1 (single isomer, unassigned) [Example 1325] :: 5.89
2) C[C@@H]1CN(c2cc(=O)n(C)c3ccc(C#N)nc23)[C@@H](C)CN1C(c1ccc(F)cc1)C1CCS(=O)(=O)CC1 (single isomer, unassigned) [Example 1301] :: 4.04
3) COc1cc(F)ccc1C(c1ccc(F)cc1)N1CCN(c2cc(=O)n(C)c3ccc(C#N)nc23)[C@@H](C)C1 (single isomer, unassigned) [Example 130] :: 4.74
4) CC(c1ccc(OC(F)(F)F)cc1)N1C[C@H](C)N(c2cc(=O)n(C)c3ccc(C#N)nc23)C[C@H]1CN(C)C (single isomer, unassigned) [Example 1414] :: 4.40
5) CC(C)OC(=O)C1CN(c2c(C#N)c(=O)n(C)c3ccc(C#N)nc23)CCN1C(c1ccc(F)cc1)c1ccc(F)cc1 (single isomer, unassigned) [Example 64] :: 3.62
6) C[C@@H]1CN(c2cc(=O)n(C)c3ccc(C#N)nc23)[C@@H](C)CN1C(c1ccc(F)cc1)c1ccncn1 (single isomer, unassigned) [Example 392] :: 6.74
7) CC[C@@H]1CN(c2cc(=O)n(C)c3ccc(C#N)nc23)CCN1C(c1ccc(Cl)cc1)c1ccc(Cl)cc1 [Example 180] :: 5.39
8) C[C@H]1CN(Cc2ccc3c(c2)OC(F)(F)O3)[C@H](CO)CN1c1cc(=O)n(C)c2ccc(C#N)nc12 [Example 1390] :: 5.40

a = C[C@@H]1CN(c2cc(=O)n(C)c3ccc(C#N)nc23)[C@@H](C)CN1C(c1ccc(C#N)cc1)c1ccc(F)cn1 (single isomer, unassigned) [Example 463]
b = COC(=O)C1CN(c2c(Cl)c(=O)n(C)c3ccc(C#N)nc23)CCN1C(c1ccc(F)cc1)c1ccc(F)cc1 (single isomer, unassigned) [Example 76]
Please tell me which of the two, a or b , has the higher reported pIC50 value. Mark your selection by writing its label.
a
(a: 6.48, b: 5.47)

I = C[C@@H]1CN(c2cc(=O)n(C)c3ccc(C#N)nc23)[C@@H](C)CN1Cc1ccc(OC(F)(F)F)cc1F [Example 243]
II = CC[C@@H]1CN(c2cc(=O)n(C)c3ccc(C#N)nc23)[C@@H](C)CN1C(c1ccc(Cl)cc1)c1ccc(Cl)cc1 [Example 1099]
Please tell me which of the two, I or II , has the higher reported pIC50 value. Mark your selection by writing its label.
I
(I: 6.54, II: 5.77)

====

- measuredTarget: human DGKα (Homo sapiens)
- Construct: TVMV protease cleavage site (C); Hexa-His (C); made in house; host or cells: Sf9 insect cells (baculovirus, Bac-to-Bac)
- assayProtocol: DGKα LIPGLO assay (extruded liposome substrate), in vitro DGK inhibition
- Type: biochemical
- conditionLabel: liposome (LIPGLO) assay; read-out: DGKa LIPGLO IC50
pIC50: −log10 of the molar value.
endpointLabel: pIC50

Known results for compounds:
1) C[C@@H]1CN(c2cc(=O)n(C)c3ccc(C#N)nc23)[C@@H](C)CN1C(c1ccc(F)cc1)c1ncccn1 (some centres unmarked) [Example 676] :: 7.21
2) COc1cc(F)ccc1C(c1ccc(F)cc1)N1CCN(c2cc(=O)n(C)c3ccc(C#N)nc23)[C@@H](C)C1 (single isomer, unassigned) [Example 129] :: 4.92
3) CC(c1cccc(OC(F)(F)F)c1F)N1C[C@H](C)N(c2cc(=O)n(C)c3ccc(C#N)nc23)C[C@H]1C (single isomer, unassigned) [Example 1209] :: 4.70
4) CCC(c1ccc(OC(F)(F)F)cc1)N1C[C@H](CC)N(c2cc(=O)n(C)c3ccc(C#N)nc23)C[C@H]1CC (single isomer, unassigned) [Example 1059] :: 8.05
5) C[C@@H]1CN(c2cc(=O)n(C)c3ccc(C#N)nc23)[C@@H](C)CN1C(c1ccc(F)cc1)c1cccc(C(F)F)n1 (single isomer, unassigned) [Example 697] :: 6.13

P = CC[C@H]1CN(C(c2ccc(F)cc2)c2cscn2)[C@H](CC)CN1c1cc(=O)n(C)c2ccc(C#N)nc12 (single isomer, unassigned) [Example 1071]
Q = [2H]C(CC)(c1ccc(F)cc1)N1C[C@H](C)N(c2cc(=O)n(C)c3ccc(C#N)nc23)C[C@H]1C (single isomer, unassigned) [Example 574]
R = C[C@@H]1CN(c2cc(=O)n(C)c3ccc(C#N)nc23)[C@@H](C)CN1C(c1ccccc1)c1ccc(OC(F)(F)F)cc1 (single isomer, unassigned) [Example 222]
S = CC[C@H]1CN(C(C)c2ccc(F)c(F)c2)[C@H](C)CN1c1cc(=O)n(C)c2ccc(C#N)nc12 (single isomer, unassigned) [Example 1139]
T = C[C@@H]1CN(c2cc(=O)n(C)c3ccc(C#N)nc23)[C@@H](C)CN1C(c1ccccc1)c1c(F)cccc1F (single isomer, unassigned) [Example 272]
Arrange the 5 entries by pIC50 so the values rise. Response field: labels, in requested order.
Q, T, R, S, P
(Q: 5.74, T: 6.00, R: 6.54, S: 7.19, P: 7.85)
